- tgt: AHR (Homo sapiens, UniProt P35869)
- Construct: U87 MG glioblastoma cells (ATCC #HTB-14) endogenously expressing AHR; endogenous in cells; host or cells: U87 MG glioblastoma cells (ATCC #HTB-14)
- Sequence (P35869 11-848): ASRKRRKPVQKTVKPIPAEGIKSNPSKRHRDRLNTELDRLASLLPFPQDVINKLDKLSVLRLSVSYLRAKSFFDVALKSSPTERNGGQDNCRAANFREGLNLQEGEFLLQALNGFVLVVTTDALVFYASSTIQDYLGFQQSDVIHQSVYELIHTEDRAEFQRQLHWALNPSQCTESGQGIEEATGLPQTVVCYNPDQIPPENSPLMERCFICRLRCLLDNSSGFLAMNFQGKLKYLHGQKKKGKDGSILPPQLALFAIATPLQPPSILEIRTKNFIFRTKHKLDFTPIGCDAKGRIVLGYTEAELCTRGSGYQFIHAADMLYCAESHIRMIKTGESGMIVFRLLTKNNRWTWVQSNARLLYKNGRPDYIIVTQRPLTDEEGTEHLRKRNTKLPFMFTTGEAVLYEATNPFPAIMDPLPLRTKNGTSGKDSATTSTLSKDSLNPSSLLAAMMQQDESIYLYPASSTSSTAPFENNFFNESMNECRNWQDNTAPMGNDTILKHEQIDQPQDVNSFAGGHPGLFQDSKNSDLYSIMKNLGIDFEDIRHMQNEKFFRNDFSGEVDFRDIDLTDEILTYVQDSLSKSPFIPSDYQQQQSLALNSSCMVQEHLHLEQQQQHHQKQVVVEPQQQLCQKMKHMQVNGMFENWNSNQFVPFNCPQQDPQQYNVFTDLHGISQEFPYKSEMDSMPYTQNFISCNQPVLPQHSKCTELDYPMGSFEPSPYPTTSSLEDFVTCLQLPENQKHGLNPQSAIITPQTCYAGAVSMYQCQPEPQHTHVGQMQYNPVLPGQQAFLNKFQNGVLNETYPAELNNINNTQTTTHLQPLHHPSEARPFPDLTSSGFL
- test_details: In vitro assay 1: antagonism in human cell line (AHR transactivation, firefly luciferase reporter, kynurenic acid prestimulated)
- Type: cell-based
- protocol_conditions: AHR Antagonism Human IC50 [M], firefly luciferase reporter
recorded_metric: IC50 (M)

- molecule: "Cc1c(-c2nc3c4cccc(F)c4nc(N[C@@H]4CCCCNC4=O)n3n2)cnn1C"
  tgt: "AHR (Homo sapiens, UniProt P35869)"
  IC50 / M: "1.54e-08"

A. Cc1nn(C)cc1-c1nc2c3cccc(Br)c3nc(N[C@@H]3CCCCNC3=O)n2n1
B. C[C@@H](Nc1nc2c(Br)cccc2c2nc(-c3cnn(C)c3)nn12)C(=O)N1CC2(CN(C(=O)OC(C)(C)C)C2)C1
Exercise: compare A and B ; which one has the greater IC50? Your answer should be the label of the entry you select.
B
(B: 4.24e-08 M, A: 2.78e-10 M)

A. Cc1nn(C)cc1-c1nc2c3cccc(C(F)(F)F)c3nc(N[C@@H]3CNCCNC3=O)n2n1
B. C[C@@H](Nc1nc2c(Br)cccc2c2nc(-c3cnn(C)c3)nn12)C(=O)N1C[C@@H]2C[C@H]1CN2C
Lab note: check whether A or B has the lower measured IC50. Your answer should be the label of the entry you select.
A
(A: 8.67e-10 M, B: 4.4e-08 M)

a. C[C@@H](Nc1nc2c(Br)cccc2c2nc(-c3cnn(C)c3)nn12)C(=O)N1C[C@H]2C[C@@H]1CO2
b. Cc1nn(C)cc1-c1nc2c3cccc(Cl)c3nc(N[C@@H]3CNCCNC3=O)n2n1
Exercise: compare a and b ; which one has the greater IC50? Your answer should be the label of the entry you select.
a
(a: 1.2e-07 M, b: 3.22e-09 M)

###

- tgt: AHR (Homo sapiens, UniProt P35869)
- Construct: U87 MG glioblastoma cells (ATCC #HTB-14) endogenously expressing AHR; endogenous in cells; host or cells: U87 MG glioblastoma cells (ATCC #HTB-14)
- test_details: In vitro assay 1: antagonism in human cell line (AHR transactivation, firefly luciferase reporter, kynurenic acid prestimulated)
- Type: cell-based
- protocol_conditions: AHR Antagonism Human IC50 [M]
recorded_metric: IC50 (M)

- compound: "CCn1cc(-c2nc3c4cccc(C#N)c4nc(N[C@@H]4CCCCNC4=O)n3n2)c(C)n1"
  recorded_metric: "IC50"
  units_symbol: "M"
  endpoint_result: "1.41e-09"
- compound: "COc1ccc(-c2nc3c4ccccc4nc(N[C@H](C)C(=O)N4CCOCC4)n3n2)cc1"
  recorded_metric: "IC50"
  units_symbol: "M"
  endpoint_result: "2.09e-09"
- compound: "Nc1cccc(-c2nc3c4ccccc4nc(N[C@@H]4CCCCNC4=O)n3n2)c1"
  recorded_metric: "IC50"
  units_symbol: "M"
  endpoint_result: "1.02e-09"
- compound: "O=C1NCCCC[C@H]1Nc1nc2ccccc2c2nc(-c3ccccc3Cl)nn12"
  recorded_metric: "IC50"
  units_symbol: "M"
  endpoint_result: "1.05e-08"
- compound: "COc1cccc(-c2nc3c4cc(F)ccc4nc(NC4CCCNC4=O)n3n2)c1 (single isomer, unassigned) [Example 188]"
  recorded_metric: "IC50"
  units_symbol: "M"
  endpoint_result: "3e-08"
- compound: "N#Cc1cccc2c1nc(N[C@@H]1CCCCNC1=O)n1nc(-c3cnn(C4CCC4)c3)nc21"
  recorded_metric: "IC50"
  units_symbol: "M"
  endpoint_result: "2.44e-09"

a. O=C1NCCCC[C@H]1Nc1nc2ccccc2c2nc(-c3cnn(CCCO)c3)nn12
b. CN(C)Cc1noc(-c2nc3c4ccccc4nc(N[C@@H]4CCCCNC4=O)n3n2)n1
c. O=C1NCCCC[C@@H]1Nc1nc2ccccc2c2nc(-c3ccccc3OC(F)(F)F)nn12
d. O=C1NCCCC[C@H]1Nc1nc2ccccc2c2nc(-c3cccc(Cl)c3Cl)nn12
Task for the reader: rank each entry by its IC50, from the minimum upward. // list labels; follow requested order
d, a, c, b

I. O=C1NCCCC[C@@H]1Nc1nc2ccccc2c2nc(-c3ccncc3F)nn12
II. O=C1NCCC[C@H]1Nc1nc2ccccc2c2nc(-c3cccc(OC(F)(F)F)c3)nn12
III. O=C1NCCCC[C@H]1Nc1nc2ccccc2c2nc(-c3cnn(CC4CCC4)c3)nn12
Given 3 compounds, produce a descending ranking by IC50. // list labels; follow requested order
I, II, III
